Consider the following molecules and their measured TGI readings.
- Test system: ACHN renal
- assay.details: NCI tumour cell line growth inhibition, 48 h

{"molecule": "NCCCCN(CCCN)Cc1ccc2ccccc2c1", "TGI": "53.8 µM"}
{"molecule": "COc1ccc(-c2nn(-c3cccc(NC(=O)c4cccc(C(F)(F)F)c4)c3)cc2-c2ccncc2)cc1Cl", "TGI": "> 100 µM"}
{"molecule": "O=C(O)c1cccc2cccc(C(=O)O)c12.[Hg]", "TGI": "31.8 µM"}
{"molecule": "COc1nc(N)nc2c1ncn2[C@@H]1O[C@H](CO)[C@@H](O)[C@@H]1O", "TGI": "> 100 µM"}
{"molecule": "Brc1ccccc1C=NC12CC3CC(CC(C3)C1)C2", "TGI": "> 100 µM"}
{"molecule": "O=NN/C(=C1\\Nc2ccc([N+](=O)[O-])cc2NC1=O)C(O)c1ccc([N+](=O)[O-])cc1 (stereo unspecified)", "TGI": "> 100 µM"}
